pIC50 values, listed per item
- assay.target: β2c subunit of human cCP (Homo sapiens, UniProt P49720+Q99436)
- Construct: purchased Boston Biochem, Inc
- experiment.description: IC50 determination with fluorogenic substrate Ac-RLR-AMC (PA28β added)
- Format: biochemical
- condition.description: own assay
pIC50: −log10 of the molar value.

See these solved cases before continuing.
CC(C)C[C@H](NC(=O)C(C)(C)NC(=O)c1ccccc1C(F)(F)F)B(O)O [ML604440, reference compound]: < 6.00
COc1ccc([C@@H](O)[C@H](NC(=O)[C@H](C)NC(=O)CN2CCOCC2)C(=O)N[C@@H](CC2=CCCC2)C(=O)[C@@]2(C)CO2)cc1 [KZR-616, reference compound]: 6.39
O=C(N[C@@H](Cc1coc2ccccc12)B(O)O)[C@@H]1C[C@H]2CC[C@@H]1O2 [M3258]: < 6.00

Next, consider the following compound.
INPUT: # lookup: pIC50 of C[C@]1(C(=O)[C@H](Cc2ccccc2)NC(=O)[C@H](CO)NC(=O)c2cccc(=O)[nH]2)CO1 [KZR-504]
OUTPUT: < 6.00
